FYI, the data here is from PubChem BioAssay (EPA / NIEHS).

# TEST_SUMMARY: ATG_TA_CIS: Attagene CIS-FACTORIAL HepG2 Assay for human TA Basal Promoter (AID 2282964)
# RUN_PARAMETERS: HepG2 Attagene CIS-factorial TA basal promoter reporter; actives raise or lower the signal
Activity calls are given as the source filed them. Rule for the calls: active = hit-call score of the fitted dose curve at least 0.9, where 1 is the maximum; inactive = score below 0.9.
Respond with a class label; see T (active), F (inactive)

{"COMPOUND": "O=C1C(c2[nH]c3ccc(S(=O)(=O)O)cc3c2O)=Nc2ccc(S(=O)(=O)O)cc21", "GROUP": "F"}
{"COMPOUND": "C=CC(C)(O)CCC=C(C)CCC=C(C)C (stereo not drawn)", "GROUP": "T"}
{"COMPOUND": "CCOC(=S)SSC(=S)OCC", "GROUP": "F"}
{"COMPOUND": "Nc1ccc(S(=O)(=O)O)c(N)c1", "GROUP": "F"}
{"COMPOUND": "CN(CCOc1ccc(CC2SC(=O)NC2=O)cc1)c1ccccn1 (stereo not drawn)", "GROUP": "F"}

Then there is this compound:
Which outcome was assigned to CC(C#N)(CCC(=O)O)N=NC(C)(C#N)CCC(=O)O (stereo not drawn) in this test?
F
